src = the kinase profiling compilation of Christmann-Franck et al. (2016)

Target: MAP4K2 (human) (UniProt Q12851)
Sequence (Q12851 whole entry, looked up): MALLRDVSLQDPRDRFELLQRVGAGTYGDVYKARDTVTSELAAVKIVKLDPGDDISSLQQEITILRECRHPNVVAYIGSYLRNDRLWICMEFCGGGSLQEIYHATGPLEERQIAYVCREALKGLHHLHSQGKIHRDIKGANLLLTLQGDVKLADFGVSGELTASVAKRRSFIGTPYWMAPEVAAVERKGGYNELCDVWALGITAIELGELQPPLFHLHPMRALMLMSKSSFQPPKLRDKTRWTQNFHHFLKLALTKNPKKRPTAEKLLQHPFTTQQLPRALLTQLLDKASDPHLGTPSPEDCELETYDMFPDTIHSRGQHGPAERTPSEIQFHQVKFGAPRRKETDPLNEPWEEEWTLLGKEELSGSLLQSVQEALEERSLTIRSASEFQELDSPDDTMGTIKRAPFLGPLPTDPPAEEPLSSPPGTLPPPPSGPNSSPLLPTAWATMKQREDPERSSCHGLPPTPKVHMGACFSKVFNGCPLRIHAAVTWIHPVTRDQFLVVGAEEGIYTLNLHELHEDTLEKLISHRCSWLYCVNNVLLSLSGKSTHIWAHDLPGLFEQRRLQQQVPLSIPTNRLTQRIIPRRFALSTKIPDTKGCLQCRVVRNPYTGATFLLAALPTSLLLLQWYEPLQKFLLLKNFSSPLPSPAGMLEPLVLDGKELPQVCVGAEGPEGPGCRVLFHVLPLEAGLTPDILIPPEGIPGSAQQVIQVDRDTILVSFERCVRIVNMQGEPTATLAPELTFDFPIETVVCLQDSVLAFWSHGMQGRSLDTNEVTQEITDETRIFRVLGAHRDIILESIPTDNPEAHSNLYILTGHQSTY
Test: KINOMEscan competition binding
Conditions: compound 10.0 µM
Metric name: kinase still bound, per cent of control (%)
Dear colleague, please return just the value in %, with no unit written.

Here are 3 compounds together with their reported answers.
[[record]]
structure_smiles = "C=CC(=O)Nc1cc(-n2c(=O)ccc3cnc4ccc(-c5cn[nH]c5)cc4c32)ccc1C"
endpoint_result = 9.4

[[record]]
structure_smiles = "COc1ccc(N(C(=O)Oc2c(C)cccc2C)c2ccnc(Nc3ccc(N4CCN(C)CC4)cc3)n2)c(OC)c1"
endpoint_result = 1.6

[[record]]
structure_smiles = "CNC(=O)c1ccc(Nc2cc(Nc3ccccc3S(=O)(=O)C(C)C)c3cc[nH]c3n2)nc1"
endpoint_result = 11


Turning now to a further compound:
Kindly indicate its recorded kinase still bound, per cent of control. Item: "O=c1cc(N2CCOCC2)oc2c(-c3cccc4c3sc3ccccc34)cccc12"
100

---

Reported kinase still bound, per cent of control values for a set of compounds
Biological target: PRKG1 (human) (UniProt Q13976)
Sequence (Q13976 whole entry, looked up): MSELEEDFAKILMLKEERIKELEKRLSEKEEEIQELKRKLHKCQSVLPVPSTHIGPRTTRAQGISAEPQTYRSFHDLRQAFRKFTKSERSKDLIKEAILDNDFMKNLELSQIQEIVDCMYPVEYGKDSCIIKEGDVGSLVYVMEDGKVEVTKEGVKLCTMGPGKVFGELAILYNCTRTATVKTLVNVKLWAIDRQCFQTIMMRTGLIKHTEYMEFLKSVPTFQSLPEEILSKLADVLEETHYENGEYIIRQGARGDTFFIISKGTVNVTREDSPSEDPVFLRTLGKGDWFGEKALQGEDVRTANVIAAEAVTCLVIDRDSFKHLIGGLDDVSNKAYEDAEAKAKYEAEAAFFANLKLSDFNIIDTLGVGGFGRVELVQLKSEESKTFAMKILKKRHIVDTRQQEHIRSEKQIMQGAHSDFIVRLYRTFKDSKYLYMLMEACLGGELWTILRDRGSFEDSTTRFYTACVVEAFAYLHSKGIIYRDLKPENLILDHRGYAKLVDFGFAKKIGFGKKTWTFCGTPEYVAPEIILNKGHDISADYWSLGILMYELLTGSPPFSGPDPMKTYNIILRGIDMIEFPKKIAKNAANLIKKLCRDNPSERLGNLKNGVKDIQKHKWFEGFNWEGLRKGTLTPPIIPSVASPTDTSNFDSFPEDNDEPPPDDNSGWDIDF
Experiment: KINOMEscan competition binding
Conditions: compound 10.0 µM
Dear colleague, please return just the value in %, with no unit written.

Here are 3 compounds together with their reported answers.
[[record]]
structure_smiles = "C[C@@H](Oc1cc(-c2cnn(C3CCNCC3)c2)cnc1N)c1c(Cl)ccc(F)c1Cl"
value_unit = "%"
endpoint_result = 100

[[record]]
structure_smiles = "NC(=O)Nc1cc(-c2cccc(F)c2)sc1C(=O)N[C@@H]1CCCNC1"
value_unit = "%"
endpoint_result = 0.8

[[record]]
structure_smiles = "CCN(CC)CCCCNc1ncc2c(n1)N(C)C(=O)N(c1c(Cl)c(OC)cc(OC)c1Cl)C2"
value_unit = "%"
endpoint_result = 100


Kindly indicate its recorded kinase still bound, per cent of control. Item: "COCC(=O)NC/C=C/c1ccc2ncnc(Nc3ccc(Oc4ccc(C)nc4)c(C)c3)c2c1"
100

Kindly indicate its recorded kinase still bound, per cent of control. Item: "CCN1CCN(C(=O)Cc2ccc(Nc3ncc(F)c(Nc4ccc(C(=O)Nc5ccccc5Cl)cc4)n3)cc2)CC1"
100

---

Molecular target: UniProtKB O14976
Sequence (O14976 whole entry, looked up): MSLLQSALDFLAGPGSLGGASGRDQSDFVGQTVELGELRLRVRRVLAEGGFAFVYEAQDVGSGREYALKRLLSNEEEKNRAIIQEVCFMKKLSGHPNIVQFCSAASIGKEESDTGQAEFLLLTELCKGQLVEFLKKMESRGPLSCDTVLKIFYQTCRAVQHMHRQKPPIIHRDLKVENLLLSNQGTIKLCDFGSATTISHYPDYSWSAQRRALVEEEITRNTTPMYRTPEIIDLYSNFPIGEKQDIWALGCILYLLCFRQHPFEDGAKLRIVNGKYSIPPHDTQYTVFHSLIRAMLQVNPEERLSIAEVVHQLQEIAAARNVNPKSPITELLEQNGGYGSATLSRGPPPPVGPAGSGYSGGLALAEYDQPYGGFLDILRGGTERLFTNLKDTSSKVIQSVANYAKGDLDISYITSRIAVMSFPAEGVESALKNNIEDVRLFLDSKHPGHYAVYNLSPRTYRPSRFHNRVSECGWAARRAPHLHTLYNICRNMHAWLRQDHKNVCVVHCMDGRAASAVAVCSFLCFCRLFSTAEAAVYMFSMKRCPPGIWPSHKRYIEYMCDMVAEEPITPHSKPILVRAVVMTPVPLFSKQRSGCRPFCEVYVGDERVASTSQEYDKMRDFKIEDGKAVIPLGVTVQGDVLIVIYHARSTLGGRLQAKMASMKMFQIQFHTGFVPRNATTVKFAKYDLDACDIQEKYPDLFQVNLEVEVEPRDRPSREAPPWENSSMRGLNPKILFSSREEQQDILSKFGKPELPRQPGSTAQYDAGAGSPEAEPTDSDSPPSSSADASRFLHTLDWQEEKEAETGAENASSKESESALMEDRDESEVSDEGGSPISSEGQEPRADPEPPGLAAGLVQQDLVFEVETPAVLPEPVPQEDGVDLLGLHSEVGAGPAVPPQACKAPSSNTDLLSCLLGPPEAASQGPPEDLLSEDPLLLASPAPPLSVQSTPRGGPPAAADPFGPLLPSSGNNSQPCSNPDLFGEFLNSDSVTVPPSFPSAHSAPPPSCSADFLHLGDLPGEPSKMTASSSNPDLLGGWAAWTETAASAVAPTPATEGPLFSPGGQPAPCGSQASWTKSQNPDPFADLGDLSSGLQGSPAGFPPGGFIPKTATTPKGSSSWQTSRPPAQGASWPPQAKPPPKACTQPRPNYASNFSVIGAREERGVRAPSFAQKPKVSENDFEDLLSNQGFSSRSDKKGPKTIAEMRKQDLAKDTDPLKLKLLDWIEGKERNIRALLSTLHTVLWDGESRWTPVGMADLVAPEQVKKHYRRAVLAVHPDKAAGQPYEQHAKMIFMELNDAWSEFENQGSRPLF
Assay: KINOMEscan competition binding
Settings: compound 10.0 µM
So basically: is kinase still bound, per cent of control under 4%? Then rule met. Not under? Then rule not met.

Please review the following examples before continuing.
[[record]]
structure_smiles = "CCN(CC)CCCCNc1ncc2c(n1)N(C)C(=O)N(c1c(Cl)c(OC)cc(OC)c1Cl)C2"
group = "rule not met"

[[record]]
structure_smiles = "O=c1cc(N2CCOCC2)oc2c(-c3cccc4c3sc3ccccc34)cccc12"
group = "rule not met"

[[record]]
structure_smiles = "C=CC(=O)Nc1ccc(CN(C(=O)Nc2c(Cl)c(OC)cc(OC)c2Cl)c2cc(Nc3ccc(N4CCN(C)CC4)cc3)ncn2)cc1"
group = "rule not met"

[[record]]
structure_smiles = "COc1ccc(N(C(=O)Oc2c(C)cccc2C)c2ccnc(Nc3ccc(N4CCN(C)CC4)cc3)n2)c(OC)c1"
group = "rule not met"

[[record]]
structure_smiles = "Cc1n[nH]c2ccc(-c3cncc(OC[C@@H](N)Cc4c[nH]c5ccccc45)c3)cc12"
group = "rule not met"


Determine if "CCN1CCN(C(=O)Cc2ccc(Nc3ncc(F)c(Nc4ccc(C(=O)Nc5ccccc5Cl)cc4)n3)cc2)CC1" shows kinase still bound, per cent of control strictly lower than 4%.
rule not met

Determine if "C[C@@H](Oc1cc(-c2cnn(C3CCNCC3)c2)cnc1N)c1c(Cl)ccc(F)c1Cl" shows kinase still bound, per cent of control strictly lower than 4%.
rule not met

Determine if "N#CCNC(=O)c1ccc(-c2ccnc(Nc3ccc(N4CCOCC4)cc3)n2)cc1" shows kinase still bound, per cent of control strictly lower than 4%.
rule met
